pIC50: −log10 of the molar value.
This document collects pIC50 values reported for Acetylcholinesterase (Homo sapiens, UniProt P22303).
attribute measured: pIC50

INSERT INTO assay_data (compound, attribute_measured, assay_value) VALUES
  ('CCC(C)C(=O)[C@]12C(=O)[C@]3(CC=C(C)C)C[C@H](CC=C(C)C)[C@@]1(C)CC[C@@H](C(C)(C)O)OC2=C(CC=C(C)C)C3=O (some centres undefined)', 'pIC50', 4.43),
  ('CC(C)=CC[C@]12C[C@@H]3[C@@H]4[C@@H](O)C(C)(C)[C@@H](C(C)C)CC4(C1=O)C(=O)[C@](C(=O)c1ccccc1)(C2=O)C3(C)C', 'pIC50', 4.58),
  ('C/C(=C\C[C@]12C[C@H]3C[C@@H]4C(C)(C)CC[C@@]4(C1=O)C(=O)[C@](C(=O)c1ccccc1)(C2=O)C3(C)C)CC/C=C/C(C)C', 'pIC50', 5.01),
  ('C=C(C)[C@H]1CC[C@@](C)(O)[C@@H](C2=C(O)C(CC=C(C)C)(CC=C(C)C)C(=O)C(C(=O)C(C)C)=C2O)C1', 'pIC50', 4.60);
